# assay-explanation: total protein half-life in vivo (active degradation + dilution); higher = more stable protein
# condition-info: wild type E. coli NCM3722; growth: P-lim chemostat; doubling time 6 h
Recorded total protein half-life in vivo values for a group of sequences are listed next.
// note: answer is a bare numeric in h

Past entries and their recorded results:
macromolecule-sequence | measured-value
MATYLIGDVHGCYDELIALLHKVEFTPGKDTLWLTGDLVARGPGSLDVLRYVKSLGDSVRLVLGNHDLHLLAVFAGISRNKPKDRLTPLLEAPDADELLNWLRRQPLLQIDEEKKLVMAHAGITPQWDLQTAKECARDVEAVLSSDSYPFFLDAMYGDMPNNWSPELRGLGRLRFITNAFTRMRFCFPNGQLDMYSKESPEEAPAPLKPWFAIPGPVAEEYSIAFGHWASLEGKGTPEGIYALDTGCCWGGTLTCLRWEDKQYFVQPSNRHKDLGEAAAS | 4.83
MNSCDFRVFLQEFGTTVHLSLPGSVSEKERLLLKLLMQGMSVTEISQYRNRSAKTISHQKKQLFEKLGIQSDITFWRDIFFQYNPEIISATGSNSHRYINDNHYHHIVTPEAISLALENHEFKPWIQPVFCAQTGVLTGCEVLVRWEHPQTGIIPPDQFIPLAESSGLIVIMTRQLMKQTADILMPVKHLLPDNFHIGINVSAGCFLAAGFEKECLNLVNKLGNDKIKLVLELTERNPIPVTPEARAIFDSLHQHNITFALDDFGTGYATYRYLQAFPVDFIKIDKSFVQMASVDEISGHIVDNIVELARKPGLSIVAEGVETQEQADLMIGKGVHFLQGYLYSPPVPGNKFISEWVMKAGG | 5.76

Then there is this sequence:
For reference, reported total protein half-life in vivo for `MMKKFIAPLLALLVSGCQIDPYTHAPTLTSTDWYDVGMEDAISGSAIKDDDAFSDSQADRGLYLKGYAEGQKKTCQTDFTYARGLSGKSFPASCNNVENASQLHEVWQKGADENASTIRLN` stands at 4.95

---

# total protein half-life in vivo per record follows
# assay-explanation: total protein half-life in vivo (active degradation + dilution); higher = more stable protein
# condition-info: wild type E. coli NCM3722; growth: C-lim chemostat; doubling time 6 h
Enter your answer as a number in h; do not include the unit.

Below, each entry is followed by its recorded total protein half-life in vivo result.
macromolecule-sequence | readout | uom | measured-value
MTLEWWFAYLLTSIILSLSPGSGAINTMTTSLNHGYRGAVASIAGLQTGLAIHIVLVGVGLGTLFSRSVIAFEVLKWAGAAYLIWLGIQQWRAAGAIDLKSLASTQSRRHLFQRAVFVNLTNPKSIVFLAALFPQFIMPQQPQLMQYIVLGVTTIVVDIIVMIGYATLAQRIALWIKGPKQMKALNKIFGSLFMLVGALLASARHA [P0AG34] | total protein half-life in vivo | h | 1.47
MSKLFWAMLSFITRLPVPRRWSQGLDFEHYSRGIITFPLIGLLLGAISGLVFMVLQAWCGAPLAALFSVLVLVLMTGGFHLDGLADTCDGVFSARSRDRMLEIMRDSRLGTHGGLALIFVVLAKILVLSELALRGESILASLAAACAVSRGTAALLMYRHRYAREEGLGNVFIGKIDGRQTCVTLGLAAIFAAVLLPGMHGVAAMVVTMVAIFILGQLLKRTLGGQTGDTLGAAIELGELVFLLALL | total protein half-life in vivo | h | 5.85
MNEFFPLASAAGMTVGLAVCALIVGLALAMFFAVWESAKWRPVAWAGSALVTILRGLPEILVVLFIYFGSSQLLLTLSDGFTINLGFVQIPVQMDIENFDVSPFLCGVIALSLLYAAYASQTLRGALKAVPVGQWESGQALGLSKSAIFFRLVMPQMWRHALPGLGNQWLVLLKDTALVSLISVNDLMLQTKSIATRTQEPFTWYIVAAAIYLVITLLSQYILKRIDLRATRFERRPS [P0AE34] | total protein half-life in vivo | h | 6.02
MNSCDFRVFLQEFGTTVHLSLPGSVSEKERLLLKLLMQGMSVTEISQYRNRSAKTISHQKKQLFEKLGIQSDITFWRDIFFQYNPEIISATGSNSHRYINDNHYHHIVTPEAISLALENHEFKPWIQPVFCAQTGVLTGCEVLVRWEHPQTGIIPPDQFIPLAESSGLIVIMTRQLMKQTADILMPVKHLLPDNFHIGINVSAGCFLAAGFEKECLNLVNKLGNDKIKLVLELTERNPIPVTPEARAIFDSLHQHNITFALDDFGTGYATYRYLQAFPVDFIKIDKSFVQMASVDEISGHIVDNIVELARKPGLSIVAEGVETQEQADLMIGKGVHFLQGYLYSPPVPGNKFISEWVMKAGG | total protein half-life in vivo | h | 5.06
MMRIALFLLTNLAVMVVFGLVLSLTGIQSSSVQGLMIMALLFGFGGSFVSLLMSKWMALRSVGGEVIEQPRNERERWLVNTVATQARQAGIAMPQVAIYHAPDINAFATGARRDASLVAVSTGLLQNMSPDEAEAVIAHEISHIANGDMVTMTLIQGVVNTFVIFISRILAQLAAGFMGGNRDEGEESNGNPLIYFAVATVLELVFGILASIITMWFSRHREFHADAGSAKLVGREKMIAALQRLKTSYEPQEATSMMALCINGKSKSLSELFMTHPPLDKRIEALRTGEYLK | total protein half-life in vivo | h | 4.83
MAEKRNIFLVGPMGAGKSTIGRQLAQQLNMEFYDSDQEIEKRTGADVGWVFDLEGEEGFRDREEKVINELTEKQGIVLATGGGSVKSRETRNRLSARGVVVYLETTIEKQLARTQRDKKRPLLHVETPPREVLEALANERNPLYEEIADVTIRTDDQSAKVVANQIIHMLESN [P0A6D7] | total protein half-life in vivo | h | 3.99

# total protein half-life in vivo (sequence: `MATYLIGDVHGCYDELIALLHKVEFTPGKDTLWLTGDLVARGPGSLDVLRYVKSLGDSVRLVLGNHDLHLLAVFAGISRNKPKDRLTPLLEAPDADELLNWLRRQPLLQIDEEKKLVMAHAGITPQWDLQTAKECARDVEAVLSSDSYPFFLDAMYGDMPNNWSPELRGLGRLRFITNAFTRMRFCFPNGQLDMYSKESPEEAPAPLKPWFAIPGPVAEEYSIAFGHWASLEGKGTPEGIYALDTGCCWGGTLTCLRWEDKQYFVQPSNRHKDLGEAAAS` ) is 4.72

The reported total protein half-life in vivo of the sequence `MTWLPLNPIPLKDRVSMIFLQYGQIDVIDGAFVLIDKTGIRTHIPVGSVACIMLEPGTRVSHAAVRLAAQVGTLLVWVGEAGVRVYASGQPGGARSDKLLYQAKLALDEDLRLKVVRKMFELRFGEPAPARRSVEQLRGIEGSRVRATYALLAKQYGVTWNGRRYDPKDWEKGDTINQCISAATSCLYGVTEAAILAAGYAPAIGFVHTGKPLSFVYDIADIIKFDTVVPKAFEIARRNPGEPDREVRLACRDIFRSSKTLAKLIPLIEDVLAAGEIQPPAPPEDAQPVAIPLPVSLGDAGHRSS` was 3.62

Lab note: measured total protein half-life in vivo of `MNNLPLLNDLRVFMLVARRAGFAAVAEELGVSPAFVSKRIALLEQTLNVVLLHRTTRRVTITEEGERIYEWAQRILQDVGQMMDELSDVRQVPQGMLRIISSFGFGRQVVAPALLALAKAYPQLELRFDVEDRLVDLVNEGVDLDIRIGDDIAPNLIARKLATNYRILCASPEFIAQHGAPKHLTDLSALPCLVIKERDHPFGVWQLRNKEGPHAIKVTGPLSSNHGEIVHQWCLDGQGIALRSWWDVSENIASGHLVQVLPEYYQPANVWAVYVSRLATSAKVRITVEFLRQYFAEHYPNFSLEHA` was 2.24
